EXPERIMENTAL_SYSTEM: T1, rat APJ receptor (rat, UniProt Q9JHG3 1-377)
T1 sequence (looked up): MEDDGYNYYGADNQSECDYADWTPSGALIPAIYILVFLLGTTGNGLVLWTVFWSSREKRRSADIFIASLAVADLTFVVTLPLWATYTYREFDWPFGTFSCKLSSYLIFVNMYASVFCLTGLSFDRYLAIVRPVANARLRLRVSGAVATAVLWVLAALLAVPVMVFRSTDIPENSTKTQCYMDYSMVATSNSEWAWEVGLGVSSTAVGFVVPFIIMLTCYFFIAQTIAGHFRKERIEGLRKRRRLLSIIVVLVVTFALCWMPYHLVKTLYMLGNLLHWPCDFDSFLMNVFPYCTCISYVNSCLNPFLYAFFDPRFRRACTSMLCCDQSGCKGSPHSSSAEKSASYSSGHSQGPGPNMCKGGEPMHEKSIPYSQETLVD
ASSAY_COMMENT: cell-based or functional assay
Starred links: 1 amine or outer side, 2 acyl side, 3 side chain; linkers in the order of their positions; H or OH if unused. Non-standard residues stand in square brackets, D forms with d. Primed or numbered codes have the meaning given here. *: point of attachment. AC4Abu = α-carboxy-4-aminobutyric acid, O=C(C(CCN[*:1])C(=O)[*:3])[*:2]; Phe(4-Cl) = N[C@@H](Cc1ccc(Cl)cc1)C(=O)O; γGlu = O=C(O)[C@H](CCC(=O)[*:2])N[*:1]; NMeR = CN[C@@H](CCCNC(=N)N)C(=O)O; Tridecanoyl = CCCCCCCCCCCCC(=O)*; Cha = N[C@@H](CC1CCCCC1)C(=O)O; β3hP = O=C(O)C[C@@H]1CCCN1; Nle = CCCC[C@H](N)C(=O)O; Pip′ = not defined here; Deg = CCC(N)(CC)C(=O)O; AEEA = NCCOCCOCC(=O)O
PROPERTY_MEASURED: EC50 Rat APJ Receptor (GTPγS assay) (nM)
# output: bare number, implied unit nM

Entry Tridecanoyl-[γGlu][AEEA][AEEA][dQ]RP[NMeR][Cha]SHKG[Pip′][Nle][β3hP][Phe(4-Cl)]-OH [Apelin polypeptide SEQ ID NO: 544] : reported EC50 Rat APJ Receptor (GTPγS assay) = ?
5.61

Entry XXXQRPRLSHKGPXPF ({TDA}[AC4Abu][Aeea][Aeea]Q[hArg]P[NMeArg]LSHKGP[Nle]P[4-Cl-F]{COOH}) [Apelin polypeptide SEQ ID NO: 353] : reported EC50 Rat APJ Receptor (GTPγS assay) = ?
0.275

Entry Tridecanoyl-[AC4Abu][AEEA][AEEA]QRP[NMeR][Cha]SHKG[Deg][Nle]P[Phe(4-Cl)]-OH (SMILES CCCCCCCCCCCCC(=O)NCCC(C(=O)O)C(=O)NCCOCCOCC(=O)NCCOCCOCC(=O)N[C@@H](CCC(N)=O)C(=O)N[C@@H](CCCNC(=N)N)C(=O)N1CCC[C@H]1C(=O)N(C)[C@@H](CCCNC(=N)N)C(=O)N[C@@H](CC1CCCCC1)C(=O)N[C@@H](CO)C(=O)N[C@@H](Cc1c[nH]cn1)C(=O)N[C@@H](CCCCN)C(=O)NCC(=O)NC(CC)(CC)C(=O)N[C@@H](CCCC)C(=O)N1CCC[C@H]1C(=O)N[C@@H](Cc1ccc(Cl)cc1)C(=O)O) [Apelin polypeptide SEQ ID NO: 415] : reported EC50 Rat APJ Receptor (GTPγS assay) = ?
4.01
